B1: WDR41 (parent)
chain: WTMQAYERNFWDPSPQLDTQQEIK

# Variants of: B1
# experimentalProtocol: protein stability index of a GFP-peptide fusion (GPS, HEK-293T) (PSI 1-6); higher = more stable;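 further: lentivirally expressed fusions sorted by FACS into six bins by GFP to DsRed ratio, PSI derived from sequencing read proportions per bin multiplied by bin number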
# testSettings: c terminus: a fixed tail appended
measurementName: protein stability index
// print number alone

Before answering, review these 2 worked examples.
>>> observedresult("WTMQAYERNFWDPSPQLDTQREIK [Q21R]")
2.84
>>> observedresult("WTMQAYERNFWDPMPQLDTQQEIK [S14M]")
2.47

Return reported protein stability index; argument: WTMQAYERNFVDPSPQLDTQQEIK [W11V] 3.54

I would be grateful if you could share the reported protein stability index for FTMQAYERNFWDPSPQLDTQQEIK [W1F] . 2.44
